assayComment: Solubility of p-TSA in various solvents
Format: physicochemical
protocolConditions: organic solvent or mixture, thermodynamic from solid; in Polyethylene glycol 400 (PEG-400), n = 3
assayEndpoint: solubility (mg/mL)

- Cc1ccc(S(N)(=O)=O)cc1 [p-TSA, p-Toluenesulfonamide]: 467
